These data points were gathered from ChEMBL document CHEMBL4619740.

# measurementTarget: GTPase KRas (Homo sapiens, UniProt P01116, G12V)
# Sequence (P01116 whole entry G12V): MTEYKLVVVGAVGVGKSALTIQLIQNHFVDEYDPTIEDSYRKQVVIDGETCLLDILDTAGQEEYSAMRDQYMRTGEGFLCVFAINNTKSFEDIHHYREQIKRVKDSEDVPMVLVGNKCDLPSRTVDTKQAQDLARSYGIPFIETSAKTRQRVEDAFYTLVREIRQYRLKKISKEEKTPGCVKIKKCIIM
# assayExplanation: Inhibition of GFP-tagged KRAS G12V mutant (unknown origin) expressed in MDCK cells cotransfected with mCherry-CAXX assessed as increase in KRAS G12V-plasma membrane dissociation incubated for 48 hrs by quantitative confocal microscopic method
attributeMeasured: IC50

Record excerpt, results attached:
COc1cc(/C=C/C(=O)c2ccc([N+](=O)[O-])cc2)cc(OC)c1OC = 7.01 µM
COc1cc(/C=C/C(=O)c2ccc(Br)cc2)cc(OC)c1OC = 24.6 µM
COc1cc(/C=C/C(=O)c2ccccn2)cc(OC)c1OC = 53 µM

Query for GTPase KRas (Homo sapiens, UniProt P01116, G12V): what IC50 does the record show for COc1cc(C(=O)/C=C/c2ccc([N+](=O)[O-])cc2)cc(OC)c1OC ? 8.2 µM

* * *

# measurementTarget: GTPase KRas (Homo sapiens, UniProt P01116, G12V)
# assayExplanation: Inhibition of GFP-tagged KRAS G12V mutant (unknown origin) expressed in MDCK cells cotransfected with mCherry-CAXX assessed as increase in KRAS G12V-plasma membrane dissociation incubated for 48 hrs by quantitative confocal microscopic method
attributeMeasured: pIC50
Convention used: pIC50 is expressed as -log10 of the molar concentration.

Record excerpt, results attached:
COc1ccc(C(=O)/C=C/c2cc(OC)c(OC)c(OC)c2)cc1 = 5.08
COc1cc(/C=C/C(=O)c2ccc(N(C)C)cc2)cc(OC)c1OC = 5.13
COc1cc(/C=C/C(=O)c2ccc(F)cc2)cc(OC)c1OC = 4.80
COc1cc(/C=C/C(=O)c2c(F)cccc2F)cc(OC)c1OC = 5.09
COc1cc(/C=C/C(=O)c2ccc(N)cc2)cc(OC)c1OC = 5.04

API: the following record is the query input.
Query for GTPase KRas (Homo sapiens, UniProt P01116, G12V): what pIC50 does the record show for COc1cc(C(=O)/C=C/c2c(F)cccc2F)cc(OC)c1OC ? 5.13
